Hey, just so you know, these numbers are from patent US20260130395A1.

# assay_protocol: Stability of cannabinoid entourage and Vitamin E components of the powder concentrate by LCMSMS
# Assay type: physicochemical
# assay_context: powder stored at 21-25° C.; 90 days
# Procedure: At each time period, 0.05 g of powder was dissolved in 10 ml-15 of ethanol, diluted to fall within the analytical range, and injected into the LCMSMS for analysis.
Could you please report measured Stability of Plant-Derived Cannabinoid Compounds in Powder Concentrate for the items listed next?
Numbers only, in mg/g powder.

Past entries and their recorded results:
[
  {
    "molecule": "CCCCCc1cc(O)c2c(c1)OC(C)(C)[C@@H]1CCC(C)=C[C@@H]21 [D9 THC, delta-9-tetrahydrocannabinol, reference compound]",
    "reported_result": 2.49
  },
  {
    "molecule": "C=C(C)[C@@H]1CCC(C)=C[C@H]1c1c(O)cc(CCCCC)c(C(=O)O)c1O [CBDA, cannabidiolic acid]",
    "reported_result": 0.413
  }
]

For the 3 molecules below, give their Stability of Plant-Derived Cannabinoid Compounds in Powder Concentrate values.
1. CCCCCc1cc(O)c2c(c1)OC(C)(CCC=C(C)C)C=C2 (stereo not shown) [CBC, cannabichromene]
2. CCCCCc1cc(O)c2c(c1)OC1(C)CCC3C1C2C3(C)C (stereo not shown) [CBL, cannabicyclol]
3. C=C(C)[C@@H]1CCC(C)=C[C@H]1c1c(O)cc(CCC)cc1O [CBDV, cannabidivarin]

result:
1: 0.068; 2: 0.050; 3: 0.050

* * *

# assay_protocol: Stability of cannabinoid compounds and Vitamin E components in Beverage 1 (AB White) by LCMSMS
# Assay type: physicochemical
# assay_context: AB White stored at 8° C.; 18 days
Param threshold (2 µg/mL) applies to Stability of Plant-Derived Cannabinoid Compounds in AB White, 8° C.; output Yes when value >= threshold, No when value < threshold.

query: Determine whether measured Stability of Plant-Derived Cannabinoid Compounds in AB White, 8° C. meets or exceeds 2 µg/mL for CCCCCc1cc2c(c(O)c1C(=O)O)[C@@H]1C=C(C)CC[C@H]1C(C)(C)O2 [D9 THCA, delta-9-tetrahydrocannabinolic acid]
result: No

query: Next record, please: CCCCCc1cc(O)c2c(c1)OC(C)(C)[C@@H]1CCC(C)=C[C@@H]21 [D9 THC, delta-9-tetrahydrocannabinol, reference compound]
result: Yes

query: Entry to check: C=C(C)[C@@H]1CCC(C)=C[C@H]1c1c(O)cc(CCCCC)cc1O [CBD, cannabidiol, reference compound]
result: Yes

query: Let us now turn to CCCCCc1cc(O)c2c(c1)OC1(C)CCC3C1C2C3(C)C (stereo not shown)
result: No

query: Thanks! And C=C(C)[C@@H]1CCC(C)=C[C@H]1c1c(O)cc(CCCCC)c(C(=O)O)c1O ?
result: No

query: Record: CCCCCc1cc(O)c(C/C=C(\C)CCC=C(C)C)c(O)c1
result: Yes

query: Moving on to the next molecule: C=C(C)[C@@H]1CCC(C)=C[C@H]1c1c(O)cc(CCC)cc1O
result: No

* * *

# assay_protocol: Stability of cannabinoid compounds and Vitamin E components in Beverage 2 (AB Red) by LCMSMS
# Type: physicochemical
# assay_context: stored at 21-25° C., 120 days
recorded_metric: Stability of Plant-Derived Cannabinoid Compounds in AB Red (µg/mL)
Give bare numbers, in µg/mL.

Worked examples, 3 compounds total:
[
  {
    "compound": "CCCCCc1cc(O)c(C/C=C(\\C)CCC=C(C)C)c(O)c1",
    "readout_unit": "µg/mL",
    "reported_result": 4.61
  },
  {
    "compound": "CCCCCc1cc(O)c2c(c1)OC(C)(C)c1ccc(C)cc1-2",
    "readout_unit": "µg/mL",
    "reported_result": 2.77
  },
  {
    "compound": "CCCCCc1cc(O)c2c(c1)OC(C)(C)[C@@H]1CCC(C)=C[C@@H]21 [D9 THC, delta-9-tetrahydrocannabinol, reference compound]",
    "readout_unit": "µg/mL",
    "reported_result": 12.4
  }
]

query: Reported Stability of Plant-Derived Cannabinoid Compounds in AB Red for CCCCCc1cc(O)c2c(c1)OC(C)(CCC=C(C)C)C=C2 (stereo not shown) : what is it?
result: 0.29

* * *

# assay_protocol: Stability of cannabinoid compounds and Vitamin E components in Beverage 2 (AB Red) by LCMSMS
# Format: physicochemical
# assay_context: stored at 8° C., 450 days
Field: Stability of Plant-Derived Cannabinoid Compounds in AB Red. Provide a value for each of the compounds that follow.
Give bare numbers, in µg/mL.

These solved cases illustrate the format of a correct answer.
[
  {
    "compound": "CCCCCc1cc(O)c2c(c1)OC(C)(C)c1ccc(C)cc1-2 [CBN, cannabinol]",
    "readout_unit": "µg/mL",
    "reported_result": 2.71
  },
  {
    "compound": "CCCc1cc(O)c2c(c1)OC(C)(C)[C@@H]1CCC(C)=C[C@@H]21 [THCV, delta-9-tetrahydrocannabivarin]",
    "readout_unit": "µg/mL",
    "reported_result": 3.08
  },
  {
    "compound": "C=C(C)[C@@H]1CCC(C)=C[C@H]1c1c(O)cc(CCCCC)c(C(=O)O)c1O [CBDA, cannabidiolic acid]",
    "readout_unit": "µg/mL",
    "reported_result": 1.63
  }
]

Continue with the next compound.
query: Can you look up the measured Stability of Plant-Derived Cannabinoid Compounds in AB Red of CCCCCc1cc(O)c2c(c1)OC(C)(CCC=C(C)C)C=C2 (stereo not shown) [CBC, cannabichromene] for me?
result: 0.282

* * *

# assay_protocol: Stability of cannabinoid compounds and Vitamin E components in Beverage 1 (AB White) by LCMSMS
# Type: physicochemical
# assay_context: AB White stored at 8° C.; 0 days
Binary call on Stability of Plant-Derived Cannabinoid Compounds in AB White, 8° C. with cut-off 2 µg/mL: strictly below means 1, and equality or higher means 0.

Below, 5 molecules whose answers are already recorded.
[
  {
    "molecule": "CCCCCc1cc(O)c2c(c1)OC(C)(C)c1ccc(C)cc1-2 [CBN, cannabinol]",
    "discrete_label": 0
  },
  {
    "molecule": "C=C(C)[C@@H]1CCC(C)=C[C@H]1c1c(O)cc(CCCCC)c(C(=O)O)c1O [CBDA, cannabidiolic acid]",
    "discrete_label": 1
  },
  {
    "molecule": "CCCCCc1cc2c(c(O)c1C(=O)O)[C@@H]1C=C(C)CC[C@H]1C(C)(C)O2 [D9 THCA, delta-9-tetrahydrocannabinolic acid]",
    "discrete_label": 1
  },
  {
    "molecule": "CCCc1cc(O)c2c(c1)OC(C)(C)[C@@H]1CCC(C)=C[C@@H]21 [THCV, delta-9-tetrahydrocannabivarin]",
    "discrete_label": 0
  },
  {
    "molecule": "C=C(C)[C@@H]1CCC(C)=C[C@H]1c1c(O)cc(CCC)cc1O [CBDV, cannabidivarin]",
    "discrete_label": 1
  }
]

query: Dear colleague, could you confirm whether Stability of Plant-Derived Cannabinoid Compounds in AB White, 8° C. of CCCCCc1cc(O)c2c(c1)OC(C)(CCC=C(C)C)C=C2 (stereo not drawn) [CBC, cannabichromene] falls below 2 µg/mL? Thanks.
result: 1

* * *

# assay_protocol: Stability of cannabinoid compounds and Vitamin E components in Beverage 1 (AB White) by LCMSMS
# Assay type: physicochemical
# assay_context: AB White stored at 8° C.; 25 days
Can you tell me Stability of Plant-Derived Cannabinoid Compounds in AB White, 8° C. for the items I'm about to list?
Reply with a number, then the unit it belongs to.

See these solved cases before continuing.
[
  {
    "compound": "CCCCCc1cc(O)c2c(c1)OC1(C)CCC3C1C2C3(C)C (stereo not shown)",
    "reported_result": "0.540 µg/mL"
  },
  {
    "compound": "C=C(C)[C@@H]1CCC(C)=C[C@H]1c1c(O)cc(CCCCC)c(C(=O)O)c1O",
    "reported_result": "1.75 µg/mL"
  },
  {
    "compound": "CCCCCc1cc2c(c(O)c1C(=O)O)[C@@H]1C=C(C)CC[C@H]1C(C)(C)O2 [D9 THCA, delta-9-tetrahydrocannabinolic acid]",
    "reported_result": "0.957 µg/mL"
  }
]

Now, please, on to the next compound.
query: Return reported Stability of Plant-Derived Cannabinoid Compounds in AB White, 8° C.; argument: CCCc1cc(O)c2c(c1)OC(C)(C)[C@@H]1CCC(C)=C[C@@H]21 [THCV, delta-9-tetrahydrocannabivarin]
result: 3.56 µg/mL

* * *

# assay_protocol: Stability of cannabinoid compounds and Vitamin E components in Beverage 1 (AB White) by LCMSMS
# Format: physicochemical
# assay_context: AB White stored at 8° C.; 300 days
Lab note: compare Stability of Plant-Derived Cannabinoid Compounds in AB White, 8° C. with 3 µg/mL, writing criterion met if less and criterion not met if equal or more.

Reference set, count: 3
[
  {
    "molecule": "CCCc1cc(O)c2c(c1)OC(C)(C)[C@@H]1CCC(C)=C[C@@H]21 [THCV, delta-9-tetrahydrocannabivarin]",
    "discrete_label": "criterion not met"
  },
  {
    "molecule": "C=C(C)[C@@H]1CCC(C)=C[C@H]1c1c(O)cc(CCCCC)cc1O [CBD, cannabidiol, reference compound]",
    "discrete_label": "criterion not met"
  },
  {
    "molecule": "C=C(C)[C@@H]1CCC(C)=C[C@H]1c1c(O)cc(CCCCC)c(C(=O)O)c1O",
    "discrete_label": "criterion met"
  }
]

Now, please, on to the next molecule.
query: Is the reported Stability of Plant-Derived Cannabinoid Compounds in AB White, 8° C. for CCCCCc1cc(O)c2c(c1)OC1(C)CCC3C1C2C3(C)C (stereo not shown) strictly below 3 µg/mL?
result: criterion met
